Tested on: human PBMCs
Experiment: MTS staining for PBMC viability (cytotoxicity)
Conditions: read-out: TC50; PBMCs, HIV-2 CDC 310319 assay, MTS
valueKind: CC50

Need CC50 of COc1cc2c(cc1Cc1cccc(Cl)c1F)c(=O)c(C(=O)O)cn2[C@H](CO)C(C)C , thanks.
> 100 nM

Could you do the same for O=C1Nc2ccc(Cl)cc2[C@@](C#CC2CC2)(C(F)(F)F)O1 , please?
> 1000 nM

###

Kindly state IC50 for each of the entries shown.
System: drug-resistant HIV-1 isolates
Assay: Anti-HIV efficacy in fresh human PBMCs, drug-resistant HIV-1 isolates
Settings: Human immunodeficiency virus 1, PBMC, in Homo sapiens, against several viruses (e.g., MDR 1385, MDR 3761) in PBMCs
Structures can show the parent of a compound that is named as a salt.

Need IC50 of Cc1c(O)cccc1C(=O)N[C@@H](CSc1ccccc1)[C@H](O)CN1C[C@H]2CCCC[C@H]2C[C@H]1C(=O)NC(C)(C)C [Nelfinavir, nelfinavir mesylate] , thanks.
> 1000 nM

Could you do the same for COc1cc2c(cc1Cc1cccc(Cl)c1F)c(=O)c(C(=O)O)cn2[C@H](CO)C(C)C [Compound I] , please?
< 1 nM

Could you do the same for O=C1Nc2ccc(Cl)cc2[C@@](C#CC2CC2)(C(F)(F)F)O1 [Efavirenz, efavirenz] , please?
> 1000 nM

###

Tested on: HIV-1 clinical isolates
Assay: microbe, parasite or virus in culture
Conditions: Human immunodeficiency virus 1, PBMC, HIV-1 BR/92/021 (subtype B/B, R5) in PBMCs
Where a name gives a salt, the structure may show the parent alone.
Kindly state pIC50 for each of the entries shown.
Recall that pIC50 is obtained by taking minus log10 of the concentration measured in molar.

Need pIC50 of Cc1c(O)cccc1C(=O)N[C@@H](CSc1ccccc1)[C@H](O)CN1C[C@H]2CCCC[C@H]2C[C@H]1C(=O)NC(C)(C)C [Nelfinavir, nelfinavir mesylate] , thanks.
7.15

Could you do the same for COc1cc2c(cc1Cc1cccc(Cl)c1F)c(=O)c(C(=O)O)cn2[C@H](CO)C(C)C [Compound I] , please?
9.12

Could you do the same for O=C1Nc2ccc(Cl)cc2[C@@](C#CC2CC2)(C(F)(F)F)O1 [Efavirenz, efavirenz] , please?
7.33

###

Test system: human monocytes/macrophages
Assay: MTS cytotoxicity in monocyte/macrophage cultures
Format: cell-based
Settings: 7 days
Counter-ions that a name gives are not always drawn.
valueKind: CC50

Need CC50 of Cc1c(O)cccc1C(=O)N[C@@H](CSc1ccccc1)[C@H](O)CN1C[C@H]2CCCC[C@H]2C[C@H]1C(=O)NC(C)(C)C [Nelfinavir, nelfinavir mesylate] , thanks.
> 10 µM

###

Kindly state pIC50 for each of the entries shown.
Tested on: HIV-1 macrophage-tropic virus strains
Assay: microbe, parasite or virus in culture
Settings: Human immunodeficiency virus 1, BAL, Macrophage, in Homo sapiens, HIV-1 Ba-L in macrophages
Where a name gives a salt, the structure may show the parent alone.
Recall that pIC50 is obtained by taking minus log10 of the concentration measured in molar.

# get_value(readout= pIC50, system= HIV-1 macrophage-tropic virus strains) for COc1cc2c(cc1Cc1cccc(Cl)c1F)c(=O)c(C(=O)O)cn2[C@H](CO)C(C)C
9.17

Could you do the same for Cc1c(O)cccc1C(=O)N[C@@H](CSc1ccccc1)[C@H](O)CN1C[C@H]2CCCC[C@H]2C[C@H]1C(=O)NC(C)(C)C [Nelfinavir, nelfinavir mesylate] , please?
7.44
